- system: Serine/threonine-protein kinase 10 (Homo sapiens); further: in the data inactive means no Kd found up to 30 µM
- Sequence (O94804 whole entry): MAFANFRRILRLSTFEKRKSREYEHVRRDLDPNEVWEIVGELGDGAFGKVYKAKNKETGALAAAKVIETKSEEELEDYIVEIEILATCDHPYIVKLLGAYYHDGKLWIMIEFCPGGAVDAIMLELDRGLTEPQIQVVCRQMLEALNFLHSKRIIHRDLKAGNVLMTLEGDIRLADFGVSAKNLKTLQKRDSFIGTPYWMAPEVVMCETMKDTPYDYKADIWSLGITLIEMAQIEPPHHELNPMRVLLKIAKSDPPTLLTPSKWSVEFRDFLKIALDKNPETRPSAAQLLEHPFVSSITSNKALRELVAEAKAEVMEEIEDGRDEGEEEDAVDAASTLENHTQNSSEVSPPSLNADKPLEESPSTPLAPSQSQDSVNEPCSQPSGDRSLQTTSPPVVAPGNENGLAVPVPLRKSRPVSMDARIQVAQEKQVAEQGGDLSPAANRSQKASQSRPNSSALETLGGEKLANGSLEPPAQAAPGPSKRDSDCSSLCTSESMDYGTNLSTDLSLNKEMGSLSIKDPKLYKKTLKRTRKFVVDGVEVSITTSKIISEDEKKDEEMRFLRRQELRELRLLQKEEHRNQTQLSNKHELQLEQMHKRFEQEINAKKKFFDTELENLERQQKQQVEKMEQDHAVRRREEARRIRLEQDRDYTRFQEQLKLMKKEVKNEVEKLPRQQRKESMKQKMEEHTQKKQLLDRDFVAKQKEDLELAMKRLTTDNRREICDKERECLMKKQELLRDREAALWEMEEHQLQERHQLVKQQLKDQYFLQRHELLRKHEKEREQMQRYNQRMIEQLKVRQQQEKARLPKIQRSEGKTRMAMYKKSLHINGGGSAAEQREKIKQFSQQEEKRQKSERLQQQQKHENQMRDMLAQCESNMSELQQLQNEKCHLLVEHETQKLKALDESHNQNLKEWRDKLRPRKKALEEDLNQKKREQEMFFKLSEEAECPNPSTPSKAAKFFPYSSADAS
Active and inactive are the calls of the source.
Pick one: yes (1) = active, no (0) = inactive

compound	discrete-label
CCN(CCCOc1ccc2c(Nc3cc(CC(=O)Nc4cccc(F)c4)n[nH]3)ncnc2c1)CCOP(=O)(O)O	no (0)
CCOc1ccn(-c2ccc(F)cc2)c(=O)c1C(=O)Nc1ccc(Oc2ccnc(N)c2Cl)c(F)c1	no (0)
O=C(Nc1ccc(OC(F)(F)F)cc1)c1sccc1NCc1ccnc2ccccc12	no (0)
C=CC(=O)Nc1cccc(Nc2nc(Nc3ccc(N4CCN(C(C)=O)CC4)cc3OC)ncc2C(F)(F)F)c1	no (0)
Cn1c(=O)n(-c2ccc(C(C)(C)C#N)cc2)c2c3cc(-c4cnc5ccccc5c4)ccc3ncc21	no (0)
C=CCN(/C=C1/C(=O)O[C@H](COC)[C@@]2(C)C1=C(O)C(=O)C1=C2[C@H](OC(C)=O)C[C@]2(C)C(=O)CC[C@@H]12)CC=C	no (0)
Cc1c(NC(=O)OC[C@@H]2COCCN2)cn2ncnc(Nc3ccc4c(cnn4Cc4cccc(F)c4)c3)c12	no (0)
O=S(=O)(c1cccc2c(O)nccc12)N1CCCNCC1 [HYDROXYFASUDIL]	no (0)
O=S(=O)(c1cccc2cnccc12)N1CCCNCC1	no (0)
COc1cc2nccc(Oc3ccc(NC(=O)C4(C(=O)Nc5ccc(F)cc5)CC4)cc3)c2cc1OC [CABOZANTINIB]	no (0)

(Q) Hello, I am checking results. What call was entered for `COc1cc(F)c(F)c(Nc2ccc(I)cc2F)c1NS(=O)(=O)C1(C[C@H](O)CO)CC1` ?
(A) no (0)

(Q) Which outcome was assigned to `CC(C)(O)CC(=O)NCCn1ccc2ncnc(Nc3ccc(Oc4cccc(C(F)(F)F)c4)c(Cl)c3)c21` in this test?
(A) no (0)

(Q) What call does the record list for `O=C(NOC[C@H](O)CO)c1ccc(F)c(F)c1Nc1ccc(I)cc1F` ?
(A) no (0)

(Q) # lookup: test call for `CCN1CCN(Cc2ccc(Nc3ncc(F)c(-c4cc(F)c5nc(C)n(C(C)C)c5c4)n3)nc2)CC1`
(A) yes (1)

(Q) In this assay, the call recorded for `CCc1cc2c(cc1N1CCC(N3CCOCC3)CC1)C(C)(C)c1[nH]c3cc(C#N)ccc3c1C2=O` was what?
(A) no (0)

(Q) What is the recorded call for this compound in the test? `CN1CCN(c2nc(C3=C(c4c[nH]c5ccccc45)C(=O)NC3=O)c3ccccc3n2)CC1`
(A) no (0)

(Q) Please let me know the test result on file for `CNC(=O)c1ccc(Nc2ncc(C(F)(F)F)c(NCc3nccnc3N(C)S(C)(=O)=O)n2)cc1` .
(A) no (0)

(Q) GET /call?item= `C=CC(=O)Nc1cc(Nc2nccc(-c3cn(C)c4ccccc34)n2)c(OC)cc1N(C)CCN(C)C` returns the recorded outcome of this test.
(A) no (0)

(Q) Which outcome was entered for the compound `Cc1cc(C(=O)Nc2cc(Oc3ccc4nc(NC(=O)C5CC5)cn4n3)ccc2C)n(C)n1` in this test?
(A) no (0)

(Q) Please let me know the test result on file for `Cn1cc(-c2[nH]c3cc(NC(=O)[C@H](N)C4CCCCC4)cc4c3c2C=NNC4=O)cn1` .
(A) no (0)

(Q) Which outcome was assigned to `CC[C@@](C)(Nc1ccnc(-c2c[nH]c3ncccc23)n1)C(=O)NCC(F)(F)F` in this test?
(A) yes (1)

(Q) Returns: the outcome recorded for `Cn1c(=O)c(F)c(Nc2ccc(I)cc2F)c2c(=O)n(C[C@@H](O)CO)cnc21` in this assay.
(A) no (0)

====

Measurement record for Mitogen-activated protein kinase 9 (Homo sapiens, UniProt P45984); quantity recorded: Kd.
The source made the active and inactive calls.

The following compounds have reported results that may help.
compound	Kd
CC[C@@](C)(Nc1ccnc(-c2c[nH]c3ncccc23)n1)C(=O)NCC(F)(F)F [DECERNOTINIB]	> 30 µM (inactive)
COc1cc2ncnc(Nc3ccc(O)cc3)c2cc1OC [WHI-P131]	> 30 µM (inactive)
CNC(=O)c1ccc(Nc2ncc(C(F)(F)F)c(NCc3nccnc3N(C)S(C)(=O)=O)n2)cc1 [DEFACTINIB]	> 30 µM (inactive)
O=c1[nH]c([C@@H]2CCCN2)nc2c1oc1ccc(Cl)cc12	> 30 µM (inactive)
CC1(COc2ccc3c(c2)ncn3-c2ccc3cccc(N4CCC(N)CC4)c3n2)COC1 [CRENOLANIB]	> 30 µM (inactive)

(Q) Recorded Kd for CCc1cc2c(cc1N1CCC(N3CCOCC3)CC1)C(C)(C)c1[nH]c3cc(C#N)ccc3c1C2=O [ALECTINIB] with Mitogen-activated protein kinase 9 (Homo sapiens, UniProt P45984), please?
(A) > 30 µM (inactive)

(Q) Notebook: pull reported Kd for Mitogen-activated protein kinase 9 (Homo sapiens, UniProt P45984), entry O=S(=O)(c1cccc2c(O)nccc12)N1CCCNCC1 [HYDROXYFASUDIL]
(A) > 30 µM (inactive)

(Q) Hello, I am looking for reported Kd with Mitogen-activated protein kinase 9 (Homo sapiens, UniProt P45984) for c1cc(OCCN2CCCCC2)cc(-c2n[nH]c3ccc(-c4nc[nH]n4)cc23)c1 [CC-401] . Could you help?
(A) 0.34 µM (active)

(Q) API: value(readout=Kd, system=Mitogen-activated protein kinase 9 (Homo sapiens, UniProt P45984)) for record Cc1cc(Nc2nc(N[C@@H](C)c3ncc(F)cn3)ncc2Cl)n[nH]1 [AZD-1480]; further: in the data inactive means no Kd found up to 30 µM
(A) > 30 µM (inactive)

(Q) Kindly state the measured Kd obtained for Cn1c(=O)c(F)c(Nc2ccc(I)cc2F)c2c(=O)n(C[C@@H](O)CO)cnc21 [TAK-733] with Mitogen-activated protein kinase 9 (Homo sapiens, UniProt P45984).
Sequence (P45984 whole entry): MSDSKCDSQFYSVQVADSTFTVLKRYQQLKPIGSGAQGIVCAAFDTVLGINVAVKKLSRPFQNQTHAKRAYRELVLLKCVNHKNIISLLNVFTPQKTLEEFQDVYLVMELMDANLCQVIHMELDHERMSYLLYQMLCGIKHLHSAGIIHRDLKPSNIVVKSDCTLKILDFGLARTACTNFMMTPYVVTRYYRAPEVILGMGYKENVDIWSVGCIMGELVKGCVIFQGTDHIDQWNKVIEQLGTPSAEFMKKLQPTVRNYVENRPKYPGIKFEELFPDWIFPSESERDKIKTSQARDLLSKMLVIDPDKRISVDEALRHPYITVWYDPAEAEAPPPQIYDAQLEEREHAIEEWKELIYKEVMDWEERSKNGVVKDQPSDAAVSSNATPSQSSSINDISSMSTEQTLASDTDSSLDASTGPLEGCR
(A) > 30 µM (inactive)

====

- system: Serine/threonine-protein kinase N1 (Homo sapiens, UniProt Q16512); further: in the data inactive means no Kd found up to 30 µM
- Sequence (Q16512 whole entry): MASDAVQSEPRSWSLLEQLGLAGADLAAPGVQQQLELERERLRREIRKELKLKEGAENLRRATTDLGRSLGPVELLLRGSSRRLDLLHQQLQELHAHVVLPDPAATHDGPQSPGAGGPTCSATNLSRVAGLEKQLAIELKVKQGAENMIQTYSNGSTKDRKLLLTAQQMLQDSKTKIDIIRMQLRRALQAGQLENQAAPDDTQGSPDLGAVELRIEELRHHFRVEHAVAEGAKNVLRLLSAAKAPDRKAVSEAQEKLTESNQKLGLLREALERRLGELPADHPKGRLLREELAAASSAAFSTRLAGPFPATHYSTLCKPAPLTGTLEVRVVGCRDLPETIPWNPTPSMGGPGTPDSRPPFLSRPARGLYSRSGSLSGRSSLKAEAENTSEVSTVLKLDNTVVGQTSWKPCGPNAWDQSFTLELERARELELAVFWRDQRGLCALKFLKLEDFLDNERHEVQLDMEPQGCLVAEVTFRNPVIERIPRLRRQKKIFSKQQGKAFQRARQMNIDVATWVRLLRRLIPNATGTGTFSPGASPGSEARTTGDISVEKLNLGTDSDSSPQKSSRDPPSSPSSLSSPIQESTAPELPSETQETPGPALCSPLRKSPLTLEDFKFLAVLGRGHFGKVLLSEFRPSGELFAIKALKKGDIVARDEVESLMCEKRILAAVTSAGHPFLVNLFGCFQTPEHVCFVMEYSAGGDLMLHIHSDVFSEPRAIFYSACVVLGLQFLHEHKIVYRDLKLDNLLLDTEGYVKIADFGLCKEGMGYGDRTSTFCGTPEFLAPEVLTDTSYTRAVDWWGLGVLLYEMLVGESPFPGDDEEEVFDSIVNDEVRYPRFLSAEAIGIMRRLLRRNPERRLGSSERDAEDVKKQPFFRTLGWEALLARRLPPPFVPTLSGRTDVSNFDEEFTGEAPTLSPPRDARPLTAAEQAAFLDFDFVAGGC
Active and inactive are the calls of the source.
Pick from yes for active, no for inactive when you respond.

Below, 5 compounds whose answers are already recorded.
COc1cccc(Nc2ncnn3ccc(CN4CC[C@@H](N)[C@H](O)C4)c23)c1 yes
Cn1c(=O)n(-c2ccc(C(C)(C)C#N)cc2)c2c3cc(-c4cnc5ccccc5c4)ccc3ncc21 no
CNC(=O)c1ccc(Nc2ncc(C(F)(F)F)c(NCc3nccnc3N(C)S(C)(=O)=O)n2)cc1 no
COc1cc2ncnc(Nc3ccc(O)cc3)c2cc1OC no
CCN(CCCOc1ccc2c(Nc3cc(CC(=O)Nc4cccc(F)c4)n[nH]3)ncnc2c1)CCOP(=O)(O)O no

(Q) Could you please tell me the result logged for `Cc1c(Cn2c(C)nc3c(C(=O)O)cc(N4CCOCC4)cc32)cccc1C(F)(F)F` in this assay?
(A) no

(Q) What is the recorded call for this compound in the test? `FC(F)(F)c1ccc(CNc2ccc(Cc3c[nH]c4ncc(Cl)cc34)cn2)cn1`
(A) no

(Q) Kindly provide the recorded test outcome for the following compound: `Cc1ccc(C(=O)Nc2ccc(Oc3cc4cnn(C)c4cc3-c3cn[nH]c3)c(F)c2)c(=O)n1-c1ccc(F)cc1`
(A) no

====

- system: Phosphatidylinositol 5-phosphate 4-kinase type-2 gamma (Homo sapiens); further: in the data inactive means no Kd found up to 30 µM
- Sequence (Q8TBX8 whole entry): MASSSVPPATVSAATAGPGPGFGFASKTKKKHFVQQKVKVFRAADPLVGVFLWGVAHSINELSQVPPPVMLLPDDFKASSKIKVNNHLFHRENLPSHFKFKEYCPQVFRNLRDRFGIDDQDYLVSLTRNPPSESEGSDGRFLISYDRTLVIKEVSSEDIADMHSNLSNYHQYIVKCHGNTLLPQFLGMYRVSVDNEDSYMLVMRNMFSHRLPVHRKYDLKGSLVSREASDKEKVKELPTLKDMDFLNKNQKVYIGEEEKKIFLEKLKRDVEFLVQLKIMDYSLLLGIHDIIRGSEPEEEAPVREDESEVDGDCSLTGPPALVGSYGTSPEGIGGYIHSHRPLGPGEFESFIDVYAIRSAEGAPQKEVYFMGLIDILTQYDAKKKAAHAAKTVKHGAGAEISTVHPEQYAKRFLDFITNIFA
The source made the active and inactive calls.
quantity-name: Kd

Illustrative cases are given below, each with its answer.
molecule	Kd
Cc1c(NC(=O)OC[C@@H]2COCCN2)cn2ncnc(Nc3ccc4c(cnn4Cc4cccc(F)c4)c3)c12 [AC-480]	> 30 µM (inactive)
C=CC(=O)Nc1cc(Nc2nccc(-c3cn(C)c4ccccc34)n2)c(OC)cc1N(C)CCN(C)C [OSIMERTINIB]	2.97 µM (active)
NC[C@@](O)(c1ccc(Cl)cc1)c1ccc(-c2cn[nH]c2)cc1 [AT-13148]	> 30 µM (inactive)

Here's the next entry for you.
(Q) Would you mind telling me what Kd value was observed for O=C(O)c1ccc2c(c1)nc(Nc1cccc(Cl)c1)c1ccncc12 [SILMITASERTIB] ?
(A) 1.11 µM (active)

====

- system: Tyrosine-protein kinase ABL1 (Homo sapiens, UniProt P00519); further: in the data inactive means no Kd found up to 30 µM
- Sequence (P00519 whole entry): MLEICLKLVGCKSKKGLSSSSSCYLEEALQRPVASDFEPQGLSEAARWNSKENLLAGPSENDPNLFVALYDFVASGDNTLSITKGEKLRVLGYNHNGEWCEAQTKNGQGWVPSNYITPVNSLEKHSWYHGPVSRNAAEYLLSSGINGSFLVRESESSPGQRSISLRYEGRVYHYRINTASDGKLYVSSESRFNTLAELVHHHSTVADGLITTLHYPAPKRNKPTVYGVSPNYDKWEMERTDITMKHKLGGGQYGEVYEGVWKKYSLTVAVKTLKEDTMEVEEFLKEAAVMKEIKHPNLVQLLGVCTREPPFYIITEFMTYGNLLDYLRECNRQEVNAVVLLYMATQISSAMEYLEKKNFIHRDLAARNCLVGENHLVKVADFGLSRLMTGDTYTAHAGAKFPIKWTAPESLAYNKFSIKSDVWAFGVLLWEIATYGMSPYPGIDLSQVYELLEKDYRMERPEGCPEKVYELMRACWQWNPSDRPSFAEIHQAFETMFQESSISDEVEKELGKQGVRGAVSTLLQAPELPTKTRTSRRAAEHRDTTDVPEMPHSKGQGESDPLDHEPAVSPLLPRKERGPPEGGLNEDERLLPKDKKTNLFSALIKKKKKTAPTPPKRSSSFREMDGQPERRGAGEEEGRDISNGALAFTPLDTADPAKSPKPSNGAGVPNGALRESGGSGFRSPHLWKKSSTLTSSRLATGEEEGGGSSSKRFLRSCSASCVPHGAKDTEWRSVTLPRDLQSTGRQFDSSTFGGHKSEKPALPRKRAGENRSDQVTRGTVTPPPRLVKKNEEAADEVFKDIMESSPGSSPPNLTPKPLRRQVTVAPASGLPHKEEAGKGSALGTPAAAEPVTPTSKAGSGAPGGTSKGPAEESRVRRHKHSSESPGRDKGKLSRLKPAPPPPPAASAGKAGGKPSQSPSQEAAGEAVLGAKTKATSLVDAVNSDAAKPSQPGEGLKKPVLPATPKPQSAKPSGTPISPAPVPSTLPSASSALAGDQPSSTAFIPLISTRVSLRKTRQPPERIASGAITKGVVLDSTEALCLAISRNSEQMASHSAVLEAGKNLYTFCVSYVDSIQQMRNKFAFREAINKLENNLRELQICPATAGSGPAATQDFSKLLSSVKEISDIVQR
The source made the active and inactive calls.
Valid outcomes are listed here; reply with one: y (active), n (inactive)

Please review the following examples before continuing.
compound	discrete-label
COCCN1CCN(Cc2ccc(-c3n[nH]c4c3C(=O)c3c(NC(=O)NN5CCOCC5)cccc3-4)cc2)CC1	n
C#Cc1cccc(Nc2ncnc3cc4c(cc23)OCCOCCOCCO4)c1	n
CC1(COc2ccc3c(c2)ncn3-c2ccc3cccc(N4CCC(N)CC4)c3n2)COC1	n
CC(C)(O)CC(=O)NCCn1ccc2ncnc(Nc3ccc(Oc4cccc(C(F)(F)F)c4)c(Cl)c3)c21	n
CN1CCN(c2nc(C3=C(c4c[nH]c5ccccc45)C(=O)NC3=O)c3ccccc3n2)CC1	n
CCc1nc(C(N)=O)c(Nc2ccc(N3CCC(N4CCN(C)CC4)CC3)c(OC)c2)nc1NC1CCOCC1	n

(Q) In this assay, the call recorded for COc1ccc(-c2ccc3ncc4c(c3c2)n(-c2ccc(N3CCNCC3)c(C(F)(F)F)c2)c(=O)n4C)cn1 [BGT-226 FREE BASE] was what?
(A) n

(Q) I would be grateful if you could indicate the recorded call for `Cc1ccc(C(=O)Nc2ccc(Oc3cc4cnn(C)c4cc3-c3cn[nH]c3)c(F)c2)c(=O)n1-c1ccc(F)cc1` .
(A) n

(Q) Lab log entry: `Cc1cc(-c2cc(OC(=O)c3ccccc3)ccc2Cl)cc2nnc(Nc3ccc(OCCN4CCCC4)cc3)nc12` — outcome as called in the assay?
(A) y

(Q) Per the records of this test, what outcome belongs to `C[C@@H]1COC(Nc2ccc3ncnc(Nc4ccc(OCc5nccs5)c(Cl)c4)c3c2)=N1` ?
(A) n

(Q) In this assay, the call recorded for COc1cc2ncnc(Nc3ccc(F)c(Cl)c3)c2cc1NC(=O)/C=C/CN1CCCCC1 [DACOMITINIB ANHYDROUS] was what?
(A) n
